Catalogue of selective drug sensitivity score values
Tested on: KASUMI-10;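 also: ALL cell lines in 384-well plates, five doses spanning 10,000-fold, each plate scaled between vehicle and 100 µmol/L benzalkonium chloride controls, sDSS an adapted area-under-curve metric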
Experiment: selective drug sensitivity score (sDSS, relative to normal bone marrow) (sDSS (score)); higher = more potent and effective on the cell line relative to normal bone marrow cells
Settings: 72 h

compound | target-of-assay | selective drug sensitivity score
C#Cc1cccc(Nc2ncnc3cc(OCCOC)c(OCCOC)cc23)c1 [Erlotinib] (top concentration 10000 nM) | KASUMI-10 | 4.06
N.N.[Cl][Pt][Cl] [Cisplatin] (top concentration 100000 nM) | KASUMI-10 | 12
O=C(O)CC[C@H]1CC[C@@](c2cc(F)ccc2F)(S(=O)(=O)c2ccc(Cl)cc2)CC1 [MK-0752] (top concentration 1000 nM) | KASUMI-10 | 0
CN1CCC(CNc2ccc3ncc(-c4cccc(OC(F)(F)F)c4)n3n2)CC1 [SGI-1776] (top concentration 10000 nM) | KASUMI-10 | 4.82
CNc1ncc2cc(-c3cc(NC(=O)NCCC(C)(C)C)c(F)cc3C)c(C)nc2n1 (top concentration 10000 nM) | KASUMI-10 | 3.96
CCN1CCN(c2ccc(Nc3cc(N(C)C(=O)Nc4c(Cl)c(OC)cc(OC)c4Cl)ncn3)cc2)CC1 [Infigratinib] (top concentration 1000 nM) | KASUMI-10 | 0
Cc1ccc(NS(=O)(=O)c2cccc(C#N)c2)c2[nH]cc(C#N)c12 [E7820] (top concentration 50000 nM) | KASUMI-10 | 4.62
